# target_or_test_system: L-amino acid oxidase from Rhodococcus opacus (Rhodococcus opacus, UniProt Q8VPD4)
# Construct: made in house; host or cells: Rhodococcus opacus DSM 43250, the natural producer; purified from crude cell extract, not recombinant
# Sequence (Q8VPD4 46-534): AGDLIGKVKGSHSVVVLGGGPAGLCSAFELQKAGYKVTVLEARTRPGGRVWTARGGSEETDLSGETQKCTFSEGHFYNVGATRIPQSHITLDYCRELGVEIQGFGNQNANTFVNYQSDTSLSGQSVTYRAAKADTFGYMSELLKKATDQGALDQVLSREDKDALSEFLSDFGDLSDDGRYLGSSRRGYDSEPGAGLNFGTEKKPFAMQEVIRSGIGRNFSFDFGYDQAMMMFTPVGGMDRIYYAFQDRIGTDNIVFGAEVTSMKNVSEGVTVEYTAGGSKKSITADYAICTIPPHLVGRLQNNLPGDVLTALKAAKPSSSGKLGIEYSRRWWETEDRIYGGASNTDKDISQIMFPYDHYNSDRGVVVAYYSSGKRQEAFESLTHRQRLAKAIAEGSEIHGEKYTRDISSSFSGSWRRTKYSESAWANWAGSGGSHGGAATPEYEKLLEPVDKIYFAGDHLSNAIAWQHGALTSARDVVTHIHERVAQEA
# assay_info: biochemical
The molecules listed here are annotated with their Ki.
experimental_endpoint: Ki (mM)

chemical_smiles	scale_unit	value_observed
CSCC[C@H](N)C(=O)O	mM	6.84
NCCC[C@H](N)C(=O)O	mM	12.5
N=C(N)NCCC[C@H](N)C(=O)O	mM	5.42
NCCCC[C@H](N)C(=O)O	mM	63.7

====

# target_or_test_system: L-amino acid oxidase from Rhodococcus opacus (Rhodococcus opacus, UniProt Q8VPD4)
# Construct: made in house; host or cells: Rhodococcus opacus DSM 43250, the natural producer; purified from crude cell extract, not recombinant
# assay_info: Substrate spectrum and stereospecificity of L-amino acid oxidase
# Type: biochemical
# condition_details: 10 mM enantiomer-pure amino acid; relative to 10 mM L-alanine; pH 7.6, 30° C., 436 nm
Quick rule: Rel. activity (%) of at least 20% means true (1), below that means false (0).

compound	class_label
C[C@H](N)C(=O)O	true (1)
N[C@@H](Cc1ccc(Cl)cc1)C(=O)O (racemic)	false (0)
CSCC[C@H](N)C(=O)O	true (1)
N[C@@H](Cc1c[nH]c2ccccc12)C(=O)O	false (0)
NC1CCSC1=O (stereo not shown)	true (1)
CC(C)C[C@H](N)C(=O)O	true (1)
NCCC(N)C(=O)O (stereo not shown)	true (1)
